METHOD_NOTES: NCI Yeast Anticancer Drug Screen. Data for the cln2 rad14 strain (AID 165);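 note: 0% = growth equal to vehicle treated cultures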
ASSAY_SETUP: S. cerevisiae cln2 rad14 strain, at 50.0 µM (retest, dose inferred, filed as 5.0), stronger effect = higher value
This is part of a sample that, as a whole, favours compounds with a hit. Of some 79,000 tested, about 15% had one in any assay.
Consider the following compounds and their measured growth inhibition readings.
Write the answer as a number in %, unit excluded.

Some solved cases for reference:
S=C(N/N=C/c1ccccn1)N1CC2CCC(CC2)C1 : 100
N#C/C(=C\c1ccc(Cl)cc1Cl)C(N)=S : 82
CN1CCN(CC(=O)c2c(-c3ccccc3)[nH]c3ccccc23)CC1 : 21
Cc1c(-c2ccccc2)sc(/N=C/c2cc(Br)cc(Br)c2O)c1C#N : 12
CC(=O)[O-].[Mn+3].[O-]c1ccc(Cl)cc1C=NCCN=Cc1cc(Cl)ccc1[O-] : 89

stdin: Consider the compound shown here: CN(C)c1ccc(/C=N/N=C(/C#N)[S][Sn]([S]/C(C#N)=N/N=C/c2ccc(N(C)C)cc2)([c]2ccccc2)[c]2ccccc2)cc1 What is its recorded growth inhibition?
stdout: 89

stdin: Consider the compound shown here: CC(CCl)OC(=O)Nc1cccc(C(F)(F)F)c1 (centres undefined) What is its recorded growth inhibition?
stdout: 51

stdin: Consider the compound shown here: CN(C)c1ccc(/C=N/c2nc(-c3ccccc3)cs2)cc1 What is its recorded growth inhibition?
stdout: 89

stdin: Consider the compound shown here: COc1ccc(Cc2nc3ccc(Cl)cc3[nH]2)cc1 What is its recorded growth inhibition?
stdout: 14

stdin: Consider the compound shown here: N/C(=N\OC1(c2ccccc2)OC(=O)C(=O)/C1=C(/O)c1ccccc1)c1ccccc1 (centres undefined) What is its recorded growth inhibition?
stdout: 75

stdin: Consider the compound shown here: CCCCCCCCCCCCCC/[N+]([O-])=C/c1ccc([N+](=O)[O-])o1 What is its recorded growth inhibition?
stdout: 13

====

METHOD_NOTES: NCI Yeast Anticancer Drug Screen. Data for the rad50 strain (AID 155);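 note: 0% = growth of vehicle-only cultures of the same strain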
ASSAY_SETUP: S. cerevisiae rad50 strain growth inhibition; at 50.0 µM; stronger effect = higher value
About 79,000 compounds went through this panel and 15% of them were active in at least one assay; those are over-represented in the sample as a whole.
MEASURED_METRIC: growth inhibition (%)
Write the answer as a number in %, unit excluded.

O=C1C2Nc3ccccc3SC2C(=O)N1c1ccccc1C(F)(F)F (stereo unspecified) : 73.8
CN(C)C(=S)/N=c1\ssc(=S)n1Cc1ccco1 : 1.55
CC1SC(c2ccc(Cl)cc2)N2C(=O)C(C)SC(c3ccc(Cl)cc3)N2C1=O (stereo unspecified) : 71
O=c1[nH]c2c([N+](=O)[O-])cc(Cl)cc2nc1/C=C(\O)c1ccccn1 : 51.8
Cc1ccc(C(=O)CC(O)(C(F)(F)F)C(F)(F)F)cc1[N+](=O)[O-] : 88.9

stdin: Consider the molecule shown here: Cc1ccc(C(=O)CCCN2CCOCC2)c(C)c1 What is its recorded growth inhibition?
stdout: 77.5

stdin: Consider the molecule shown here: N#C/C(=C\c1cccnc1)c1csc2ccccc12 What is its recorded growth inhibition?
stdout: 95.3

stdin: Consider the molecule shown here: CCn1c(=O)cc2n(C)c3ccccc3n2c1=O What is its recorded growth inhibition?
stdout: 17.3

====

METHOD_NOTES: NCI Yeast Anticancer Drug Screen. Data for the mlh1 rad18 strain (AID 175)
ASSAY_SETUP: S. cerevisiae mlh1 rad18 strain growth inhibition; at 50.0 µM; stronger effect = higher value
The panel holds about 79,000 compounds, 15% with a hit somewhere; the sample as a whole holds those more often.
Consider the following compounds and their measured growth inhibition readings.
Write the answer as a number in %, unit excluded.

Some solved cases for reference:
COc1cccc2c1C(=O)c1c(O)c3c(c(O)c1C2=O)CC(O)(C(C)=O)CC3OC1CC(NCC2(O)OCC(O)C(O)C2O)C(O)C(C)O1 (stereo unspecified) : 87.9
O=[N+]([O-])c1cc(NC(=S)SCc2ccccc2)ccc1Cl : 99.2
CC(=O)O[C@@H]1c2c(c3c(=O)c4cccc(O)c4c(=O)c=3c2=[N+]=[N-])[C@H](OC(C)=O)[C@@H](OC(C)=O)[C@]1(C)O : 91.6
Cc1nn(C)c2ccc3ccccc3c(=O)c12 : 76
COc1ccccc1NC(=O)C1=C(C)NC(C)=C(C(=O)Nc2ccccc2OC)C1c1ccc(OC)c(OC)c1 : 23.9

stdin: Consider the compound shown here: CCN(CC)CCCCCCNc1cc(Cl)cc2cccnc12 What is its recorded growth inhibition?
stdout: 97.5

stdin: Consider the compound shown here: Cc1nn(C(=S)S)c(C)c1N=Nc1cccc(F)c1 What is its recorded growth inhibition?
stdout: 90

stdin: Consider the compound shown here: CN(C)C(=S)SN(C)C(=O)Nc1ccccc1 What is its recorded growth inhibition?
stdout: 86.1

stdin: Consider the compound shown here: CC/C(=C(\CC)c1ccc(O)c(CN(CC)CC)c1)c1ccc(OC)cc1 What is its recorded growth inhibition?
stdout: 99.5

stdin: Consider the compound shown here: N#CCN1CCCCCc2ccccc21 What is its recorded growth inhibition?
stdout: -7.65

stdin: Consider the compound shown here: O=C(CCCO)N/N=C\c1ccc([N+](=O)[O-])s1 What is its recorded growth inhibition?
stdout: 62.2

====

METHOD_NOTES: NCI Yeast Anticancer Drug Screen. Data for the cln2 rad14 strain (AID 165);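 note: 0% = growth equal to vehicle treated cultures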
ASSAY_SETUP: S. cerevisiae cln2 rad14 strain, at 50.0 µM, stronger effect = higher value
Method: Growth inhibition of yeast strains with defined genetic alterations is measured as a screen for potential anti-cancer activity. Selected strains with alterations in DNA damage repair or cell cycle control were exposed to compounds and growth inhibition was measured relative to vehicle treated controls. The strain used in this assay is cln2 rad14
Compounds without any hit were thinned out: in the full panel of roughly 79,000, 15% have a hit.
MEASURED_METRIC: growth inhibition (%)
Write the answer as a number in %, unit excluded.

Some solved cases for reference:
N#CC(/C=C/c1ccccc1)(NO)Nc1cccc(Cl)c1 (configuration not stated) : 98.8
OC(C1CCCCN1)C1CC(c2ccccc2)Nc2c(Cl)cc(Cl)cc21 (configuration not stated) : 99
CC(C)c1ccc(C(=O)C2CC2)cc1 : 40.5
c1ccc([P+](c2ccccc2)(c2ccccc2)C2c3ccccc3-c3ccccc32)cc1 : 88.5
COC(=O)c1ccc(C)cc1C1CN=NC12Cc1cccc(C)c1C2=O (configuration not stated) : 83.5

stdin: Consider the compound shown here: O=C(c1ccccc1)c1cccc2ccccc12 What is its recorded growth inhibition?
stdout: -14.3

stdin: Consider the compound shown here: COc1ccc(C(CN2CCOCC2)C(C)=O)cc1OC (configuration not stated) What is its recorded growth inhibition?
stdout: 23.6

====

Consider the following compounds and their measured growth inhibition readings.
METHOD_NOTES: NCI Yeast Anticancer Drug Screen. Data for the mec2-1 strain (AID 157)
ASSAY_SETUP: S. cerevisiae mec2-1 strain, at 50.0 µM, stronger effect = higher value
Compounds without any hit were thinned out: in the full panel of roughly 79,000, 15% have a hit. Calls of active or inactive are those of the source. No stated cut-off is given here; in the data, active means growth inhibition above about 70%; inactive means the rest.

Some solved cases for reference:
Cc1ccc(S(=O)(=O)N/N=c2\c(C)c(C3=NS(=O)(=O)c4cc(S(N)(=O)=O)c(Cl)cc4N3)oc3c(Cl)cc(Cl)cc23)cc1 : 47% (inactive)
N/C(=N\OC1(c2ccccc2)OC(=O)C(=O)/C1=C(/O)c1ccccc1)c1ccccc1 (stereo unspecified) : 98.5% (active)
O=C(c1ccccc1)C(c1ccccc1)C1(O)C(=O)Nc2c(Cl)cc(Cl)cc21 (stereo unspecified) : 93.3% (active)
COC(O)C12OC3CO[Si](C(C)C)(C(C)C)O[Si](C(C)C)(C(C)C)OC3C1Oc1nc(=O)ccn12 (stereo unspecified) : 91.7% (active)

stdin: Consider the compound shown here: O=C1/C(=C/c2cccc(F)c2)CCCc2ccccc21 What is its recorded growth inhibition?
stdout: 37.2% (inactive)

stdin: Consider the compound shown here: CCOC(=O)C(NS(=O)(=O)c1ccccc1)(C(F)(F)F)P(=O)(OCC(C)C)OCC(C)C (stereo unspecified) What is its recorded growth inhibition?
stdout: 96.1% (active)

====

METHOD_NOTES: NCI Yeast Anticancer Drug Screen. Data for the sgs1 mgt1 strain (AID 161);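 note: 0% = growth of cultures given vehicle only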
ASSAY_SETUP: S. cerevisiae sgs1 mgt1 strain, at 50.0 µM
About 79,000 compounds went through this panel and 15% of them were active in at least one assay; those are over-represented in the sample as a whole. Calls of active or inactive are those of the source. No stated cut-off is given here; in the data, active means growth inhibition above about 70%; inactive means the rest.
Can you answer with just one of these options? active, inactive

Worked set:
CN(C)/N=C\C1CC=CCC1 (centres undefined) : inactive
CCOC(=O)CC1(C)C(=O)CCCC1=O : inactive
CN(/N=C\c1cccc([N+](=O)[O-])c1)C(c1cccc([N+](=O)[O-])c1)N(C)/N=C/c1cccc([N+](=O)[O-])c1 (centres undefined) : inactive
c1ccc([P+](c2ccccc2)(c2ccccc2)C2c3ccccc3-c3ccccc32)cc1 : active
CCC1CCC(CC)C1O (centres undefined) : inactive

stdin: What did this assay record as the result for Oc1ccc(C2CCCCC2)cc1 ?
stdout: active

stdin: What did this assay record as the result for Cc1ccc2c(c1)C1(SC(C)C(=O)N1c1ccc(Cl)cc1)C(=O)N2CN1CCOCC1 (centres undefined) ?
stdout: inactive

stdin: What did this assay record as the result for O=[N+]([O-])/C(Cl)=C/C(=C1/Nc2ccccc2O1)[N+](=O)[O-] ?
stdout: active

stdin: What did this assay record as the result for COC(=O)CSc1nc2ccccc2[nH]1 ?
stdout: inactive

stdin: What did this assay record as the result for C[Si](C)(CCC(=O)O)O[Si](C)(C)CCC(=O)O ?
stdout: active

stdin: What did this assay record as the result for CCCCCCN(CCCCCC)CCCCCC ?
stdout: inactive

stdin: What did this assay record as the result for COc1ccccc1C(=O)N(Cc1ccccc1)c1ccc(Cl)c(C(=O)OC(C)C)c1 ?
stdout: inactive

stdin: What did this assay record as the result for O=c1[nH]c(Cc2ccccc2)nc2c1sc1nc3ccccc3n12 ?
stdout: inactive

stdin: What did this assay record as the result for Nc1ccc2oc(=O)c3ccccc3c2c1 ?
stdout: inactive

stdin: What did this assay record as the result for Cc1oc2c(c1C(=O)c1ccccc1)C(=O)c1ccccc1C2=O ?
stdout: active

stdin: What did this assay record as the result for Cc1ccccc1Sc1ccccc1[N+](=O)[O-] ?
stdout: inactive
